# Tested on: MHC-I expression by COLO 205 cells
# methodSummary: cells
# Type: cell-based, human
# conditionLabel: Homo sapiens, COLO 205, 48 h, MHC-I expression, COLO 205 cells, compounds at 35 μM, 48 hours, flow cytometry (W6/32); read-out: Induction Fold
Could you label it True if measured fold induction at 35 µM is 2 or higher, and False otherwise?

Observe how each entry below is paired with its result.
Cc1c(C(=O)c2ccccc2)c(N)c(-c2ccccc2)n1Cc1ccc(Cl)cc1 [Example 27] = True
CC(C)CCn1cc(C(=O)c2ccc3ccccc3c2)c2ccccc21 [Example 251] = False
CC(C)[C@H](NC(=O)c1cn(CC2CCCCC2)c2ccccc12)C(N)=O [Example 96] = True
CCC(C(N)=O)N(C)C(=O)c1nn(Cc2ccc(F)cc2)c2ccccc12 (single isomer, unassigned) [Example 135] = True

Is it the case that O=C(c1ccc2c(c1)c1ccccc1n2CCCCCF)c1cccc2ccccc12 [Example 318] has fold induction at 35 µM reaching or exceeding 2?
False

Can CC(C)(C)C(NC(=O)c1cn(CCCCCF)c2ccccc12)C(N)=O (stereo not drawn) [Example 297] be said to have fold induction at 35 µM at or above 2?
False

Given the entry CCCCCn1cc(C(=O)Nc2ccccc2)c2ccccc21 [Example 307] , answer whether its fold induction at 35 µM meets or surpasses 2.
False

These entries and their values trace back to patent US20210038559A1.
